System: PC-3 prostate
Test: NCI tumour cell line growth inhibition, 48 h
measurement.kind: TGI

# TGI of `CCN(CC)CCOc1ccc(/C(=C(\C)c2ccc(F)c(OC)c2)c2ccc(Cl)cc2)cc1` = 4.62 µM

Just so you know, measured TGI for CCOC(=O)CC1c2ccc(O)cc2OC(=O)C1c1ccc([N+](=O)[O-])cc1 (stereo unspecified) came out at 67.2 µM

Entry `O=C(Nc1cccc(Cl)c1Cl)c1cccc(NC2=C(Cl)C(=O)N(Cc3ccccc3)C2=O)c1` ; TGI = 97.4 µM

Lab note: CCOC(=O)CC1CCN(C(=O)c2ccccc2)C2Cc3c([nH]c4ccccc34)C12C[N+](=O)[O-] (stereo unspecified) gave TGI of > 100 µM

Query `O=c1cc(-c2ccccc2)[nH]c2cc3c(cc12)OCO3` yields TGI of > 100 µM

Entry `Cc1cc(C)cc(C(=N)c2ccccc2Cc2cccc3ccccc23)c1` ; TGI = > 100 µM

The molecule listed as Cc1cn(C2CC(ON3C(=O)c4ccccc4C3=O)C(CO)O2)c(=O)[nH]c1=O (stereo unspecified) shows TGI equal to > 10 µM

# molecule `CSC1=C(SC)SC(=C2SC3=C(SC(=C4SCCS4)S3)S2)S1` ; its TGI = > 100 µM

// field: TGI; key: `O=C(N/N=C\c1cc(Br)ccc1O)c1ccncc1` ; value = > 100 µM

Item: CSC1(CC(=O)N(C)C)C(=O)Nc2ccccc21 (stereo unspecified) | TGI: > 100 µM

Lab book: TGI of `Cc1ccc(Nc2nc(N)c(C(=O)c3ccc(C#N)cc3)s2)cc1` noted as > 100 µM

`COc1ccc(-c2cc(-c3cccn3C)c(C#N)c(N)n2)cc1OC` yielded TGI of > 100 µM

Form: molecule = `Nc1nc(Cl)cc(NCCO)n1` ; TGI = > 100 µM

For record `CC1=NC(=Cc2ccc(O)cc2)C(=O)N1n1c(-c2ccccc2)nc2ccccc2c1=O` the listed TGI is > 100 µM

Please fill in: TGI reported for CC(C)=CCS(=O)c1ccccc1NC1=CC(=O)CC(C)(C)C1 (stereo unspecified) = > 100 µM

Quick note, TGI for `CCN(CC)CCn1nc(N)c2nc3cc(Cl)ccc3nc21` landed at > 100 µM

Reported TGI of `O=c1c(-c2ccccc2)c(SCCCN2CCN(c3cccc(Cl)c3)CC2)n(-c2ccccc2)c(=S)n1-c1ccccc1` : > 100 µM

Briefly, TGI measured for `CCCCCc1c(C)[nH]c(/C=C2\N=C(c3ccc[nH]3)C=C2CC)c1C` : 1.23 µM

Recorded result, `C[C@H]1[C@H](C)CC[C@]2(C)CC[C@]3(C)C(=C[C@@H](O)[C@@H]4[C@@]5(C)[C@H](O)[C@@H](O)[C@H](O)C(C)(C)[C@@H]5CC[C@]43C)[C@H]12` , TGI: > 100 µM

`O=C(Nc1cccc(Cl)c1)c1cc2ccccc2cc1O` yielded TGI of > 100 µM

Summary for this molecule, `COc1cc(/C=C2\C(=O)Nc3ccc(F)cc32)cc(OC)c1OC` : TGI is > 100 µM

---

Tested on: RXF 393 renal
Experiment: NCI tumour cell line growth inhibition, 48 h
Consider the following molecules; for each one, report its TGI.

get_value(item= `c1cc(-c2ncc(-c3ccc4c(c3)CCCO4)o2)ccn1` , readout=TGI) returns > 100 µM

Notebook: O=C(O)c1cc(O)c2c(c1)C(C1c3cc(C(=O)O)cc(O)c3C(=O)c3c(OC4OC(CO)C(O)C(O)C4O)cccc31)c1cccc(OC3OC(CO)C(O)C(O)C3O)c1C2=O (stereo not given) , TGI read as > 100 µM

Entry `CC1=C(C(=O)Nc2c(C)cccc2C)C(c2ccccc2Cl)C(C(=O)Nc2c(C)cccc2C)=C(C)N1` , TGI reported as > 100 µM

The measured TGI associated with `O=C(CSc1nnc(-c2ccccc2NC(=O)C(F)(F)F)c(=O)[nH]1)NC(=O)Nc1ccccc1` reads > 100 µM

Entry `O=C(O)c1cccc(OCCO)c1` — recorded TGI = > 100 µM

For this molecule ( CC(C)=CCS(=O)c1ccccc1NC1=CC(=O)CC(C)(C)C1 (stereo not given) ), measured TGI is > 100 µM

// recorded TGI for `C/C(=N\Nc1cc(CN2CCCC2)c(-c2ccc(Cl)cc2)nn1)C(=O)O` : > 100 µM

TGI reported for this molecule N#CC1Nc2ccccc2[C@@H](O)C1O (stereo not given in full) : > 100 µM

Record OCC1OC(n2cnc3c2NC=NC[C@H]3O)C(O)C1O (stereo not given in full) . Reported TGI: > 450 µM

Data point: `CCN(CC)CCOc1ccc(/C(=C(\C)c2ccc(F)c(OC)c2)c2ccc(Cl)cc2)cc1` ; TGI = 4.36 µM

Input `CC(=O)Oc1ccc(Nc2c3ccccc3nc3ccccc23)cc1` . Output TGI: 2.93 µM

Sample `CCN(CC)c1ccc2cc(-c3nnc(-c4ccccc4)o3)c(=O)oc2c1` ; TGI observed: > 52.5 µM

So for N#CC(/C(=N/NC(=O)C(=O)NN)C(=O)NC12CC3CC(CC(C3)C1)C2)c1ccccc1 (stereo not given) , the logged TGI turned out to be > 100 µM

According to the records, this molecule `O=C(O)c1c(-c2nccc3ccccc23)[nH]c(-c2ccccc2)c1S(=O)(=O)O` displays TGI of > 100 µM

TGI in this record for `Cc1n(Cc2ccc3ccccc3c2)cc[n+]1Cc1ccc2ccccc2c1` : 3.4 µM

The reported TGI of the molecule `O=C(c1ccccc1)c1c(-c2ccccc2)[nH]n(-c2ccc([N+](=O)[O-])cc2)c(=O)c1=O` was > 100 µM

The molecule listed as O=C1c2cc3c(cc2CC12Cc1cc4c(cc1C2=O)CCC4)CCCC3 (stereo not given) shows TGI equal to > 100 µM

Lab note: measured TGI of `NC(N)=N/N=C/c1cc(Cl)cc(Cl)c1O` was > 100 µM

Recorded TGI (molecule COC(=O)/C=C/C1C(C(=O)OC)C2(C(=O)OC)CCC1(C(=O)OC)N2 (stereo not given) ): > 100 µM

The measured TGI associated with O=C(Nc1ccc([N+](=O)[O-])cc1)C1C(=O)C(=O)N(c2ccc([N+](=O)[O-])cc2)C1=O (stereo not given) reads > 100 µM

The recorded TGI for entry `CC(=O)c1c(CBr)n([O-])c2ccccc2[n+]1=O` equals 32.6 µM

Recorded result, `O=c1c(-c2ccccc2)c(SCCCN2CCN(c3cccc(Cl)c3)CC2)n(-c2ccccc2)c(=S)n1-c1ccccc1` , TGI: > 100 µM

According to the records, this molecule `CN=NN(C)C(=O)NC` displays TGI of > 100 µM

# molecule COc1ccc(/C=c2/sc3n(c2=O)C(c2ccc(OC)c(OC)c2)C2=C(N=3)c3cc(F)ccc3OC2)cc1 (stereo not given) ; its TGI = > 100 µM

Lab book: TGI of `CCN1CCN(c2ccc(Nc3ccnc4ccc5nn(C)nc5c34)cc2)CC1` noted as 22.5 µM

Measured TGI, `Cc1cc(C)n(CCNCCn2nc(C)cc2C)n1` : > 100 µM

TGI for COC(CN(C(=O)c1ccccc1)C1CCC2(SCCS2)c2[nH]c3ccccc3c21)OC (stereo not given) is > 100 µM

// sample `C=CCNC1=C2C[C@@H](C)C[C@@H](OC)[C@@H](OC(=O)CCCN)[C@H](C)/C=C(\C)[C@@H](OC(N)=O)[C@H](OC)/C=C\C=C(/C)C(=O)NC(=CC1=O)C2=O` , its TGI was 42.2 µM

Entry CCN1C(=O)N(CC)C2C1NC(=S)N2/N=C/C=C/c1cccs1 (stereo not given) , TGI reported as > 100 µM

The molecule identified as `CCOC(=O)[C@H](CCCNC(=O)OC(C)(C)C)NCc1ccc(OC)c(OC)c1` registered its TGI at > 100 µM

According to the records, this molecule COC(=O)C1OC(Oc2cc(O)c3c(=O)cc(-c4ccc(O)cc4)oc3c2)C(O)C(O)C1O (stereo not given) displays TGI of > 100 µM

Input `NC1CCCC[C@H]1N.N[C@@H]1CCCC[C@@H]1N.O=C(P(=O)([O-])[O-])P(=O)([O-])[O-].[Pt+4].[Pt+4]` . Output TGI: > 100 µM

# TGI (molecule: `COc1ccc(CCNC2=CC(=O)c3ncccc3C2=O)cc1OC` ) is 15.2 µM

According to the records, this molecule `O=C(O)c1nc(-c2ccccn2)c(-c2ccccn2)nc1C(=O)O` displays TGI of 9.71 µM

// field: TGI; key: `O=C(C(=O)N1CCc2ccccc21)c1c[nH]c2ccccc12` ; value = > 10 µM

Measured TGI, Cc1c(C2Nc3ccccc3C2C)[nH]c2ccccc12 (stereo not given) : 28.8 µM

Lab note: measured TGI of COc1ccc2c(c1)CN1C(=N2)CSC1c1cc([N+](=O)[O-])ccc1Cl (stereo not given) was > 100 µM

Input `O=C(O)c1ccccc1-c1ccccc1C(=O)Nc1ccc2c(c1)Cc1cc(F)ccc1-2` . Output TGI: > 100 µM

Just so you know, measured TGI for `O=S(O)CCCCSSCc1ccccc1CSSCCCCS(=O)O` came out at 22.8 µM

What the record says about `CCOC(=O)C1(C(=O)OCC)CN(CC)CN(c2ccccc2)C1` : TGI is 31.7 µM
